Entries annotated with measured pIC50
Test system: H1975 cells
Assay: Cell cytotoxicity assay (MTS), H1975
Assay type: cell-based, human
Settings: Homo sapiens, NCI-H1975, 72 h, H1975 cells, 72 h, MTS; read-out: IC50
pIC50: −log10 of the molar value.
quantityName: pIC50

INSERT INTO assay_data (smilesentry, measured) VALUES
  ('CCOC(=O)c1ccc2[nH]c(-c3ccccc3)cc(=O)c2c1', 7.48),
  ('CCOC(=O)c1ccc2[nH]c(-c3cccc(OC)c3)cc(=O)c2c1', 7.36),
  ('CC(C)OC(=O)c1ccc2[nH]c(-c3ccccc3)cc(=O)c2c1', 7.32),
  ('CCOC(=O)c1ccc2[nH]c(-c3ccc(O)cc3)cc(=O)c2c1', 6.32);

The reported numbers originate from patent US12109207B2.
